// provenance: patent US20240400559A1

test: Solution state photophysical studies (absorption, emission, lifetime) in DMSO; format: physicochemical; conditions: in DMSO at RT, under UV light (λexc=365 nm), 10 μM
Items are presented alongside their recorded λmax (em.).
endpoint.label: λmax (em.) (nm)

{"columns": ["compound", "endpoint.label", "reported.result"],
 "data": [
  ["COc1ccc(-c2cccc3c4ccccc4cc(-c4cc(OC)cc(OC)c4)[n+]23)cc1.O=S(=O)([O-])C(F)(F)F [2y]", "λmax (em.)", 540],
  ["COc1ccc(-c2cccc3c4cc(C)ccc4cc(-c4ccccc4)[n+]23)cc1.O=S(=O)([O-])C(F)(F)F [2m]", "λmax (em.)", 540],
  ["COc1ccc(-c2cccc3c4cc(-c5ccccc5)ccc4cc(-c4ccccc4)[n+]23)cc1.O=S(=O)([O-])C(F)(F)F [2o]", "λmax (em.)", 546],
  ["COc1ccc(-c2cccc3c4ccccc4cc(-c4cccc5ccccc45)[n+]23)cc1.O=S(=O)([O-])C(F)(F)F [2aa]", "λmax (em.)", 540],
  ["COc1ccc(-c2cccc3c4ccccc4cc(-c4ccccc4)[n+]23)cc1.O=S(=O)([O-])C(F)(F)F [2f]", "λmax (em.)", 540],
  ["COc1ccc(-c2cccc3c4cc(-c5cccc6ccccc56)ccc4cc(-c4ccccc4)[n+]23)cc1.O=S(=O)([O-])C(F)(F)F [2p]", "λmax (em.)", 552],
  ["COc1ccc(-c2cccc3c4ccc(C)cc4cc(-c4ccccc4)[n+]23)cc1.O=S(=O)([O-])C(F)(F)F [2r]", "λmax (em.)", 538],
  ["O=S(=O)([O-])C(F)(F)F.c1ccc(-c2cc3ccccc3c3cccc(-c4cc5ccccc5c5ccccc45)[n+]23)cc1 [2j]", "λmax (em.)", 544],
  ["O=S(=O)([O-])C(F)(F)F.c1ccc(-c2cccc3c4ccccc4cc(-c4ccccc4)[n+]23)cc1 [2a]", "λmax (em.)", 508],
  ["COc1ccc(-c2cccc3c4cc(C)cc(C)c4cc(-c4ccccc4)[n+]23)cc1.O=S(=O)([O-])C(F)(F)F [2t]", "λmax (em.)", 542],
  ["COc1ccc(-c2cccc3c4cc(OC)cc(OC)c4cc(-c4ccccc4)[n+]23)cc1.O=S(=O)([O-])C(F)(F)F [2u]", "λmax (em.)", 602]
]}
